A collection of binders and their measured koff
system under test: T1, Macaca fascicularis IL2Rγ extracellular domain expressed with a C-terminal myc-myc-hexahistidine tag (Macaca fascicularis)
T1 construct: also called mfIL-2Rg-MMH; mfIL-2RG-MMH
T1 chain: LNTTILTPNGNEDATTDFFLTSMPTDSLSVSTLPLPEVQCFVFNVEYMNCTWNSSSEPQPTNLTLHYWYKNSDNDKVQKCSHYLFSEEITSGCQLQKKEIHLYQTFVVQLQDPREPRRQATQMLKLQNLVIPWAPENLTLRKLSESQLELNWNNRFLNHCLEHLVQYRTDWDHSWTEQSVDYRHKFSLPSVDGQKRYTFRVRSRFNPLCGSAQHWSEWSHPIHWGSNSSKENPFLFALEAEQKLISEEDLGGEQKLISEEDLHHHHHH
protocol details: SPR, captured mAb, 25C, dissociation pH 7.4
Express the result in s⁻¹ but write the number alone.

Worked set:
Query block: For the binder H4H12863P (antibody, human IgG4 S228P, kappa, V domains shown, anti-IL2Rgamma mAb expressed with human IgG4 Fc) VH: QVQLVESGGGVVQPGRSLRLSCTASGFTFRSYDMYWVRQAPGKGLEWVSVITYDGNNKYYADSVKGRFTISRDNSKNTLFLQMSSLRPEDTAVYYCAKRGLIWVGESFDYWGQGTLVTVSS VL: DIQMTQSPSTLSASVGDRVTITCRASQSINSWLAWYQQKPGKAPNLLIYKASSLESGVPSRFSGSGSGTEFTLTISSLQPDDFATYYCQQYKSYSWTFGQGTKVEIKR , what koff is on record?
Result block: 0.000194

Query block: Query (binder): H4H12886P (antibody, human IgG4 S228P, kappa, V domains shown, anti-IL2Rgamma mAb expressed with human IgG4 Fc) VH: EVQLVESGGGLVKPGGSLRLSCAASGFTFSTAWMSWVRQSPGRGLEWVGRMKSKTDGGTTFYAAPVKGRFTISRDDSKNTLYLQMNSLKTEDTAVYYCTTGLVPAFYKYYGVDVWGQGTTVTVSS VL: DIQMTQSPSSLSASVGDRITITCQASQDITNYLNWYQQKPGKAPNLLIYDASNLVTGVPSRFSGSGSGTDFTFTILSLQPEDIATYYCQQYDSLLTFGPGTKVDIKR ; field requested: koff
Result block: 0.000175

// moving on: another record for koff
Query block: State the recorded koff for this entry: H4H12889P (antibody, human IgG4 S228P, kappa, V domains shown, anti-IL2Rgamma mAb expressed with human IgG4 Fc; also called REGN7257) VH: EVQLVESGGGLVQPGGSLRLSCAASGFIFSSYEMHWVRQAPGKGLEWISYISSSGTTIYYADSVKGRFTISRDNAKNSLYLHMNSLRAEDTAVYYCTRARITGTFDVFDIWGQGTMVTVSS VL: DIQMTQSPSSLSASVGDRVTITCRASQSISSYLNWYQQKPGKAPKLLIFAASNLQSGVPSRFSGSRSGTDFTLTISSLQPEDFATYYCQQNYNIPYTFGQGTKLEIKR
Result block: 0.000157

From: patent US20200247894A1
